Exercise: for every item that follows, state its recorded log10(solubility kinetic).
conditions: buffer; pH 7.4; 200.0 µM
Form field - Quantity: solubility kinetic; Unit: mg/mL; Scale: log10

So what does the record say about log10(solubility kinetic) for Cc1ccc(CN(C)c2nc(-c3cccnc3)nc3ccccc23)o1 ?
-1.81

So what does the record say about log10(solubility kinetic) for Nc1nc(-c2cc(Cl)cc(Cl)c2OC(F)F)cs1 ?
-2.64

So what does the record say about log10(solubility kinetic) for Cc1ccc(OCC(=O)NC2CCCCCC2)cc1C ?
-2.47

So what does the record say about log10(solubility kinetic) for O=C(NC1CCN(C(=O)Nc2cccc(Cl)c2)CC1)c1ccco1 ?
-1.34

So what does the record say about log10(solubility kinetic) for CCOC(=O)N1CCN(C(=O)/C=C/c2ccc(OC)c(OC)c2)CC1 ?
-1.29

So what does the record say about log10(solubility kinetic) for O=S(=O)(Nc1c(F)cccc1F)c1ccc2c(c1)OCCO2 ?
-2.60

So what does the record say about log10(solubility kinetic) for c1ccc2nc(-c3nccs3)ccc2c1 ?
-1.99

So what does the record say about log10(solubility kinetic) for Cc1cccc(NC(=O)Nc2c(C)[nH]c(=O)[nH]c2=O)c1C ?
-2.28

So what does the record say about log10(solubility kinetic) for COc1ccc(OC)c(NC(=S)N2c3ccccc3CC2C)c1 (centres undefined) ?
-2.12

---

settings: buffer; pH 7.4; 200.0 µM
ASSAY ENDPOINT: solubility kinetic

So what does the record say about solubility kinetic for Cl.c1ccc2c(CC3=NCCN3)cccc2c1 ?
> 37 µg/mL

So what does the record say about solubility kinetic for CCOc1ncccc1C(=O)NCc1ccccc1F ?
> 41.1 µg/mL

So what does the record say about solubility kinetic for CCc1cc(C(=O)NC(C)C2CCCO2)cs1 (stereo unspecified) ?
> 38 µg/mL

So what does the record say about solubility kinetic for CCc1ccc2c(CN3CCC(C(=O)OC)CC3)cc(=O)oc2c1 ?
> 49.4 µg/mL

So what does the record say about solubility kinetic for Cc1nn(C)c(C)c1NS(=O)(=O)c1ccccc1Cl ?
> 45 µg/mL

So what does the record say about solubility kinetic for O=C(C[n+]1ccccc1)Nc1ccc(Oc2ccccc2)cc1.[Cl-] ?
> 51.1 µg/mL

---

conditions: buffer; pH 7.4; 200.0 µM
ASSAY ENDPOINT: solubility kinetic

So what does the record say about solubility kinetic for O=C(c1ccco1)N1CCN(C23CC4CC(CC(C4)C2)C3)CC1 ?
> 47.2 µg/mL

So what does the record say about solubility kinetic for c1ccc(-c2nc(N3CCOCC3)sc2-c2ccccc2)cc1 ?
< 0.3 µg/mL

So what does the record say about solubility kinetic for COc1cccc(C2NC(=O)CCC2[N+](=O)[O-])c1 (configuration not stated) ?
> 37.5 µg/mL

So what does the record say about solubility kinetic for C[C@H](Cc1ccccc1)Nc1ncnc2c1ncn2[C@@H]1O[C@H](CO)[C@@H](O)[C@H]1O ?
> 57.8 µg/mL

So what does the record say about solubility kinetic for CN(C)S(=O)(=O)N1CCN(CC(=O)Nc2ccc(F)cc2)CC1 ?
> 51.7 µg/mL

So what does the record say about solubility kinetic for CN(CC(=O)Nc1ccc(F)c(F)c1F)C(=O)C1=COCCO1 ?
> 49.5 µg/mL

So what does the record say about solubility kinetic for COc1ccc(CCNC(=O)CSc2ccccn2)cc1OC ?
> 49.9 µg/mL

The values you see were collected from PubChem BioAssay AID1996.
